SYSTEM_NAME: T1, melanocortin-1 receptor (MC1-R) of B-16 mouse melanoma cells (mouse, UniProt Q01727 1-315)
T1 construct: whole, on cells; membranes prepared from the cells were used; also called Melanocortin Receptor 1
ASSAY_TEXT: 125I-NDP-α-MSH competition, B-16 membranes
Square brackets hold non-standard residues; d marks the D form. Ends that are not written are not given here. Nle = CCCC[C@H](N)C(=O)O
Exercise: for every item that follows, state its recorded % Inhibition at 1 µM.
Answers are plain numbers, in %.

Example results:
YV[Nle]GH[dF]CWDRF-NH2 (also: oxorhenium(V) N3S1 chelate: C7 SG + backbone N of H5, F6, C7, bridge at 7 via Re(V)=O, other end not in the chain) [metallopeptide 5-5] ... 67
YV[Nle]CH[dF]RWDRF-NH2 (also: oxorhenium(V) N3S1 chelate: C4 SG + backbone N of V2, X3, C4, bridge at 4 via Re(V)=O, other end not in the chain) [metallopeptide 5-8] ... 95
YVCGH[dF]RWDRF-NH2 (also: oxorhenium(V) N3S1 chelate complex at Cys3) [metallopeptide 5-9] ... 89
YV[Nle]GH[dF]RWCRF-NH2 (also: oxorhenium(V) N3S1 chelate: C9 SG + backbone N of R7, W8, C9, bridge at 9 via Re(V)=O, other end not in the chain) [metallopeptide 5-3] ... 100
YV[Nle]GHCRWDRF-NH2 (also: oxorhenium(V) N3S1 chelate: C6 SG + backbone N of G4, H5, C6, bridge at 6 via Re(V)=O, other end not in the chain) [metallopeptide 5-6] ... 74
YV[Nle]GC[dF]RWDRF-NH2 (also: oxorhenium(V) N3S1 chelate: C5 SG + backbone N of X3, G4, C5, bridge at 5 via Re(V)=O, other end not in the chain) [metallopeptide 5-7] ... 89

With those in mind, consider the next binder.
Request: Data request, read-out % Inhibition at 1 µM, for YV[Nle]GH[dF]RWDRC-NH2 (also: oxorhenium(V) N3S1 chelate: C11 SG + backbone N of D9, R10, C11, bridge at 11 via Re(V)=O, other end not in the chain) [metallopeptide 5-1]
Result: 101

Cited source for all entries: patent US20050282739A1
